# maps each entry to its activation at 10 µM
targetUnderTest: Drosophila OR13a (Drosophila melanogaster)
Construct: expressed in transfected cells
Sequence (Q9VXL0 whole entry): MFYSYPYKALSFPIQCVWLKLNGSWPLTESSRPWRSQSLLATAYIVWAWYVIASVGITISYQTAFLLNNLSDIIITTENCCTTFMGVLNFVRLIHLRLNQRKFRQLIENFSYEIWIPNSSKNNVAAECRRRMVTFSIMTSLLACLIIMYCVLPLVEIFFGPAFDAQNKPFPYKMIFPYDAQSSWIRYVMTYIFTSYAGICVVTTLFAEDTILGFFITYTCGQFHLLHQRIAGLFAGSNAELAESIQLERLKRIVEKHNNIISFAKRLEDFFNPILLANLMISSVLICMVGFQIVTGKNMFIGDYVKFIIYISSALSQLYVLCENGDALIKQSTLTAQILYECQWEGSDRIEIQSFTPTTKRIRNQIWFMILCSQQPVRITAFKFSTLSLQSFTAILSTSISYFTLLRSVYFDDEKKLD
Sequence (Q9VNB5 whole entry partner): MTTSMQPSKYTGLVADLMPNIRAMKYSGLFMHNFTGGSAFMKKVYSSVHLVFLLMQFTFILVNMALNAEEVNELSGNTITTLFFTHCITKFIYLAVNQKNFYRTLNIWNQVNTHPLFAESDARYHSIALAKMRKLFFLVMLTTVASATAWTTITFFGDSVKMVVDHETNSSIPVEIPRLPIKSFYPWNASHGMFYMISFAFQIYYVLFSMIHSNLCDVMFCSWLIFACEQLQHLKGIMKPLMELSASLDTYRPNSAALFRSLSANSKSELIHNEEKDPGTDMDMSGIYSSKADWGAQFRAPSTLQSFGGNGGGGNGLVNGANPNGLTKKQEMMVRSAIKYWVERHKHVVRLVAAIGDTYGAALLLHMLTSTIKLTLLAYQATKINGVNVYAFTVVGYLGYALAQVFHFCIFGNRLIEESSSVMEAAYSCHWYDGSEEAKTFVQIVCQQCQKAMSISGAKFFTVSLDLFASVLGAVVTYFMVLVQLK
measurementProtocol: Calcium ion fluorescence (GCaMP6) assay, OR13a stable HEK293 cell line
Assay type: cell-based
conditionSummary: HEK293, read-out: OR13a Average response (VUAA1-normalized), 10 μM VOC; 50 μM VUAA1 = 1; responses not exceeding 0.05 considered 0
I only need the number, in %, no unit after it.

# input Sample CCCCCOC(C)=O [pentyl acetate] — what was its activation at 10 µM?
# output 0.671

# input Sample "C=Cc1ccccc1" — what was its activation at 10 µM?
# output 0

# input Sample "Cc1ccccc1" — what was its activation at 10 µM?
# output 0

The reported measurements were obtained from paper PMC10709440.
